species on record: Rattus norvegicus; test: animal or person; format: functional
property_measured: inhibition in vivo at 2 mg/kg (%)
Note: unit % is implicit; provide only the numeric part.

Query string: What value of inhibition in vivo at 2 mg/kg has been reported for the following molecule? CSCc1cn(-c2ccc(S(C)(=O)=O)cc2)c(-c2ccc(Cl)cc2)n1
Result string: 10

Query string: What value of inhibition in vivo at 2 mg/kg has been reported for the following molecule? Cc1cccc(-c2nc(C(F)(F)F)cn2-c2ccc(S(N)(=O)=O)cc2)c1
Result string: 95

Query string: What value of inhibition in vivo at 2 mg/kg has been reported for the following molecule? CN(C)c1ccc(-c2nc(C(F)(F)F)cn2-c2ccc(S(C)(=O)=O)cc2)cc1Cl
Result string: 87

Query string: What value of inhibition in vivo at 2 mg/kg has been reported for the following molecule? CS(=O)(=O)c1ccc(-n2cc(C(F)(F)F)nc2-c2ccc3c(c2)OCO3)cc1
Result string: 78

Query string: What value of inhibition in vivo at 2 mg/kg has been reported for the following molecule? CSc1ccc(-c2nc(C(F)(F)F)cn2-c2ccc(S(C)(=O)=O)cc2)cc1Cl
Result string: 0

Query string: What value of inhibition in vivo at 2 mg/kg has been reported for the following molecule? COc1c(F)cc(-c2nc(C(F)(F)F)cn2-c2ccc(S(C)(=O)=O)cc2)cc1F
Result string: 89

Query string: What value of inhibition in vivo at 2 mg/kg has been reported for the following molecule? CS(=O)(=O)c1ccc(-n2cc(COc3ccc(Cl)cc3)nc2-c2ccc(Cl)cc2)cc1
Result string: 15

Query string: What value of inhibition in vivo at 2 mg/kg has been reported for the following molecule? CS(=O)(=O)c1ccc(-n2cc(-c3ccccc3)nc2-c2ccc(Cl)cc2)cc1
Result string: 6

Query string: What value of inhibition in vivo at 2 mg/kg has been reported for the following molecule? Cc1cc(-c2nc(C(F)(F)F)cn2-c2ccc(S(C)(=O)=O)cc2)ccc1F
Result string: 90

Query string: What value of inhibition in vivo at 2 mg/kg has been reported for the following molecule? CS(=O)(=O)c1ccc(-n2cc(C(F)(F)F)nc2-c2cccc(Br)c2)cc1
Result string: 84

Query string: What value of inhibition in vivo at 2 mg/kg has been reported for the following molecule? CN(C)c1cc(-c2nc(C(F)(F)F)cn2-c2ccc(S(C)(=O)=O)cc2)ccc1Cl
Result string: 69

Query string: What value of inhibition in vivo at 2 mg/kg has been reported for the following molecule? Cc1ccccc1-c1nc(C(F)(F)F)cn1-c1ccc(S(C)(=O)=O)cc1
Result string: 95

Query string: What value of inhibition in vivo at 2 mg/kg has been reported for the following molecule? Cc1ccc(-c2nc(C(F)(F)F)cn2-c2ccc(S(C)(=O)=O)cc2)cc1C
Result string: 15

Query string: What value of inhibition in vivo at 2 mg/kg has been reported for the following molecule? CS(=O)(=O)c1ccc(-n2cc(C(F)(F)F)nc2-c2ccc(Cl)cc2)cc1
Result string: 98

Query string: What value of inhibition in vivo at 2 mg/kg has been reported for the following molecule? CS(=O)(=O)c1ccc(-n2cc(C(F)(F)F)nc2-c2ccc(F)c(F)c2)cc1
Result string: 87

Query string: What value of inhibition in vivo at 2 mg/kg has been reported for the following molecule? CSc1ccc(-c2nc(C(F)(F)F)cn2-c2ccc(S(C)(=O)=O)cc2)cc1
Result string: 79

Query string: What value of inhibition in vivo at 2 mg/kg has been reported for the following molecule? Cc1cc(F)cc(-c2nc(C(F)(F)F)cn2-c2ccc(S(C)(=O)=O)cc2)c1
Result string: 87

Query string: What value of inhibition in vivo at 2 mg/kg has been reported for the following molecule? COc1cc(-c2nc(C(F)(F)F)cn2-c2ccc(S(N)(=O)=O)cc2)ccc1Cl
Result string: 100

Query string: What value of inhibition in vivo at 2 mg/kg has been reported for the following molecule? CS(=O)(=O)c1ccc(-n2cc(CSc3ccc(Cl)cc3)nc2-c2ccc(Cl)cc2)cc1
Result string: 0

Query string: What value of inhibition in vivo at 2 mg/kg has been reported for the following molecule? Cc1ccc(-c2nc(C(F)(F)F)cn2-c2ccc(S(C)(=O)=O)cc2)cc1Cl
Result string: 10

Query string: What value of inhibition in vivo at 2 mg/kg has been reported for the following molecule? COc1c(C)cc(-c2nc(C(F)(F)F)cn2-c2ccc(S(C)(=O)=O)cc2)cc1C
Result string: 29

Query string: What value of inhibition in vivo at 2 mg/kg has been reported for the following molecule? CS(=O)(=O)c1ccc(-n2cc(C(F)(F)F)nc2-c2ccccc2F)cc1
Result string: 97

Query string: What value of inhibition in vivo at 2 mg/kg has been reported for the following molecule? CS(=O)(=O)c1ccc(-n2cc(C(F)(F)F)nc2-c2cccc(F)c2)cc1
Result string: 88

Query string: What value of inhibition in vivo at 2 mg/kg has been reported for the following molecule? CS(=O)(=O)c1ccc(-n2cc(C(F)(F)F)nc2-c2cccc(C(F)(F)F)c2)cc1
Result string: 42

Query string: What value of inhibition in vivo at 2 mg/kg has been reported for the following molecule? CN(C)c1c(Cl)cc(-c2nc(C(F)(F)F)cn2-c2ccc(S(C)(=O)=O)cc2)cc1Cl
Result string: 25

Query string: What value of inhibition in vivo at 2 mg/kg has been reported for the following molecule? Cc1ccc(-c2nc(C(F)(F)F)cn2-c2ccc(S(C)(=O)=O)cc2)cc1F
Result string: 47

Query string: What value of inhibition in vivo at 2 mg/kg has been reported for the following molecule? CS(=O)(=O)c1ccc(-n2cc(C(F)(F)F)nc2-c2ccccc2)cc1
Result string: 98

Query string: What value of inhibition in vivo at 2 mg/kg has been reported for the following molecule? CS(=O)(=O)c1ccc(-n2cc(C(F)(F)F)nc2-c2cc(Cl)cc(Cl)c2)cc1
Result string: 5

Query string: What value of inhibition in vivo at 2 mg/kg has been reported for the following molecule? Cc1cc(-c2nc(C(F)(F)F)cn2-c2ccc(S(C)(=O)=O)cc2)ccc1Cl
Result string: 64

Query string: What value of inhibition in vivo at 2 mg/kg has been reported for the following molecule? NS(=O)(=O)c1ccc(-n2cc(C(F)(F)F)nc2-c2ccc(F)c(F)c2)cc1
Result string: 83

Query string: What value of inhibition in vivo at 2 mg/kg has been reported for the following molecule? Cc1cc(F)cc(-c2nc(C(F)(F)F)cn2-c2ccc(S(N)(=O)=O)cc2)c1
Result string: 80

Query string: What value of inhibition in vivo at 2 mg/kg has been reported for the following molecule? Cc1cccc(-c2nc(C(F)(F)F)cn2-c2ccc(S(C)(=O)=O)cc2)c1
Result string: 77

Query string: What value of inhibition in vivo at 2 mg/kg has been reported for the following molecule? CS(=O)(=O)c1ccc(-n2cc(C#N)nc2-c2ccc(Cl)cc2)cc1
Result string: 69

Query string: What value of inhibition in vivo at 2 mg/kg has been reported for the following molecule? COc1c(Br)cc(-c2nc(C(F)(F)F)cn2-c2ccc(S(C)(=O)=O)cc2)cc1Br
Result string: 0

Query string: What value of inhibition in vivo at 2 mg/kg has been reported for the following molecule? Cc1ccc(-c2nc(C(F)(F)F)cn2-c2ccc(S(N)(=O)=O)cc2)cc1
Result string: 63

Query string: What value of inhibition in vivo at 2 mg/kg has been reported for the following molecule? COc1cc(-c2nc(C(F)(F)F)cn2-c2ccc(S(C)(=O)=O)cc2)ccc1Cl
Result string: 0

Query string: What value of inhibition in vivo at 2 mg/kg has been reported for the following molecule? CS(=O)(=O)c1ccc(-n2cc(CF)nc2-c2ccc(Cl)cc2)cc1
Result string: 36

Query string: What value of inhibition in vivo at 2 mg/kg has been reported for the following molecule? NS(=O)(=O)c1ccc(-n2cc(C(F)(F)F)nc2-c2ccc(F)cc2)cc1
Result string: 98

Query string: What value of inhibition in vivo at 2 mg/kg has been reported for the following molecule? COc1c(F)cc(-c2nc(C(F)(F)F)cn2-c2ccc(S(N)(=O)=O)cc2)cc1F
Result string: 100

====

species on record: Rattus norvegicus; experiment: animal or person; type: functional
// Not satisfied strictly below 60% in inhibition in vivo at 2 mg/kg; Satisfied otherwise

Query string: inhibition in vivo at 2 mg/kg >= 60% for COc1ccc(-c2nc(C(F)(F)F)cn2-c2ccc(S(C)(=O)=O)cc2)cc1Cl ?
Result string: Satisfied

Query string: inhibition in vivo at 2 mg/kg >= 60% for COc1ccc(-c2nc(C(F)(F)F)cn2-c2ccc(S(N)(=O)=O)cc2)cc1F ?
Result string: Satisfied

Query string: inhibition in vivo at 2 mg/kg >= 60% for COc1c(Cl)cc(-c2nc(C(F)(F)F)cn2-c2ccc(S(C)(=O)=O)cc2)cc1Cl ?
Result string: Not satisfied

Query string: inhibition in vivo at 2 mg/kg >= 60% for COc1cccc(-c2nc(C(F)(F)F)cn2-c2ccc(S(C)(=O)=O)cc2)c1 ?
Result string: Not satisfied
